This section lists pIC50 readings for Prostaglandin G/H synthase 1 (Homo sapiens, UniProt P23219).
pIC50 is a log-scale quantity: -log10 of the concentration expressed in molar.

So the reported pIC50 for Cc1c(C#N)cc(-c2ccc(S(C)(=O)=O)cc2)n1-c1cccc(F)c1 , on Prostaglandin G/H synthase 1 (Homo sapiens, UniProt P23219), turned out to be 4.30

Prostaglandin G/H synthase 1 (Homo sapiens, UniProt P23219) data for Cc1c(/C=N\O)cc(-c2ccc(S(C)(=O)=O)cc2)n1-c1ccc(F)c(F)c1 ; its pIC50: 3.79

Form field, pIC50 with Prostaglandin G/H synthase 1 (Homo sapiens, UniProt P23219), item Cc1c(C=O)cc(-c2ccc(S(C)(=O)=O)cc2)n1-c1ccc(F)c(F)c1 : 4.15

###

What inhibition in vivo at 10 mg/kg was measured for each of the following?
tested on: Mus musculus; assay: Analgesic activity in Swiss albino mouse inflammatory pain model assessed as inhibition of acetic acid-induced writhing at 10 mg/kg, po administered 30 mins prior to acetic acid challenge relative to vehicle-treated control; format: functional
Your answer is read as %, so omit the unit and give the number.

Documented inhibition in vivo at 10 mg/kg of Cc1ccc(-c2cc(C(F)(F)F)nn2-c2ccc(S(N)(=O)=O)cc2)cc1 : 57

For this molecule ( Cc1c(/C=N\O)cc(-c2ccc(S(C)(=O)=O)cc2)n1-c1ccc(F)c(F)c1 ), measured inhibition in vivo at 10 mg/kg is 19

For record Cc1c(/C=N\O)cc(-c2ccc(S(C)(=O)=O)cc2)n1-c1ccc(F)cc1 the listed inhibition in vivo at 10 mg/kg is 36

Entry Cc1c(/C=N\O)cc(-c2ccc(S(C)(=O)=O)cc2)n1-c1ccccc1 , inhibition in vivo at 10 mg/kg reported as 27

// inhibition in vivo at 10 mg/kg lookup, molecule = Cc1c(C=O)cc(-c2ccc(S(C)(=O)=O)cc2)n1-c1cccc(F)c1 , result: 39

For this molecule ( Cc1c(/C=N\O)cc(-c2ccc(S(C)(=O)=O)cc2)n1-c1cccc(F)c1 ), measured inhibition in vivo at 10 mg/kg is 32

Cc1c(C=O)cc(-c2ccc(S(C)(=O)=O)cc2)n1-c1ccc(F)c(F)c1 has a reported inhibition in vivo at 10 mg/kg of 53

For Cc1c(C#N)cc(-c2ccc(S(C)(=O)=O)cc2)n1-c1cccc(F)c1 the molecule record lists inhibition in vivo at 10 mg/kg as 28

GET /value?item= Cc1c(C#N)cc(-c2ccc(S(C)(=O)=O)cc2)n1-c1ccc(F)c(F)c1 &field=inhibition in vivo at 10 mg/kg returns 19

So for Cc1c(C#N)cc(-c2ccc(S(C)(=O)=O)cc2)n1-c1ccccc1 , the logged inhibition in vivo at 10 mg/kg turned out to be 28

Lab note: Cc1c(C=O)cc(-c2ccc(S(C)(=O)=O)cc2)n1-c1ccccc1 gave inhibition in vivo at 10 mg/kg of 23

For reference, reported inhibition in vivo at 10 mg/kg for Cc1c(C#N)cc(-c2ccc(S(C)(=O)=O)cc2)n1-c1ccc(F)cc1 stands at 36

###

Biological target: Prostaglandin G/H synthase 2 (Mus musculus)
Sequence (Q05769 whole entry): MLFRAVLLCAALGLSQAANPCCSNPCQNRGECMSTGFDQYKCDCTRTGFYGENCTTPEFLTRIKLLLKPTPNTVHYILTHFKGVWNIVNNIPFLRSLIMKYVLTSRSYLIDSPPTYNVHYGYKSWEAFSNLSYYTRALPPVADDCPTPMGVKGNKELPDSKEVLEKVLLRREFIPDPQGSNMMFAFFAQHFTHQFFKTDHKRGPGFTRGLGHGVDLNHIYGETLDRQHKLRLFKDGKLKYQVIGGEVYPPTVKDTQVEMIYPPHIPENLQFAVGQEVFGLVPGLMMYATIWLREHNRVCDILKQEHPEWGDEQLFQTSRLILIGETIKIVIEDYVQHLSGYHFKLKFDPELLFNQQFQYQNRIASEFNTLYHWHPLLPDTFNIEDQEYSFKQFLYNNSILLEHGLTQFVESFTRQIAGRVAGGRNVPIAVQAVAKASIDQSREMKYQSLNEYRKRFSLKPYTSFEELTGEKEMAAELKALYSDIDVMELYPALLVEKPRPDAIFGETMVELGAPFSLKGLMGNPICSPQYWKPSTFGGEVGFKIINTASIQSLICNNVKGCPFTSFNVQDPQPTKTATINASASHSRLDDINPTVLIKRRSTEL
Test: Inhibition of COX2 in mouse J774 cells assessed as inhibition of LPS-induced PGE2 production by radioimmunoassay
property.measured: pIC50
The quantity pIC50 is defined as the negative base-10 logarithm of the molar concentration.

Data point: Cc1c(C#N)cc(-c2ccc(S(C)(=O)=O)cc2)n1-c1ccc(F)c(F)c1 ; pIC50 = 8.66

# pIC50 of Cc1c(C=O)cc(-c2ccc(S(C)(=O)=O)cc2)n1-c1ccc(F)c(F)c1 = 7.15

pIC50 in this record for Cc1c(/C=N\O)cc(-c2ccc(S(C)(=O)=O)cc2)n1-c1cccc(F)c1 : 6.36

Per the records, this compound ( Cc1c(C=O)cc(-c2ccc(S(C)(=O)=O)cc2)n1-c1ccccc1 ) has pIC50 equal to 7.47

// field: pIC50; key: Cc1c(C#N)cc(-c2ccc(S(C)(=O)=O)cc2)n1-c1ccccc1 ; value = 6.44

// Cc1c(/C=N\O)cc(-c2ccc(S(C)(=O)=O)cc2)n1-c1ccc(F)cc1 : pIC50 value = 6.44

// sample Cc1c(/C=N\O)cc(-c2ccc(S(C)(=O)=O)cc2)n1-c1ccccc1 , its pIC50 was 6.72

Entry Cc1c(C#N)cc(-c2ccc(S(C)(=O)=O)cc2)n1-c1cccc(F)c1 , pIC50 reported as 7.89

Form: compound = Cc1c(C=O)cc(-c2ccc(S(C)(=O)=O)cc2)n1-c1cccc(F)c1 ; pIC50 = 8.02

Form field pIC50, entry Cc1c(/C=N\O)cc(-c2ccc(S(C)(=O)=O)cc2)n1-c1ccc(F)c(F)c1 : 6.80

###

system: J774; test: Selectivity index, ratio of IC50 for COX1 in mouse J774 cells to IC50 for COX2 in mouse J774 cells; assay type: cell-based
property.measured: Ratio IC50

Entry Cc1c(C#N)cc(-c2ccc(S(C)(=O)=O)cc2)n1-c1ccccc1 ; Ratio IC50 = > 27.8

The recorded Ratio IC50 for entry Cc1c(C=O)cc(-c2ccc(S(C)(=O)=O)cc2)n1-c1cccc(F)c1 equals > 1050

Short answer for Cc1c(/C=N\O)cc(-c2ccc(S(C)(=O)=O)cc2)n1-c1ccc(F)c(F)c1 : Ratio IC50 was > 62.5

Short answer for Cc1c(/C=N\O)cc(-c2ccc(S(C)(=O)=O)cc2)n1-c1ccc(F)cc1 : Ratio IC50 was > 27.8

Short answer for Cc1c(C=O)cc(-c2ccc(S(C)(=O)=O)cc2)n1-c1ccccc1 : Ratio IC50 was > 294

For this molecule ( Cc1c(/C=N\O)cc(-c2ccc(S(C)(=O)=O)cc2)n1-c1cccc(F)c1 ), measured Ratio IC50 is > 22.7
